B1: KLHDC10 (parent)
chain: CPIIRIPNRFLRGHRPPPARSGHR

Variants of: B1
Assay: protein stability index of a GFP-peptide fusion (GPS, HEK-293T) (PSI 1-6); higher = more stable;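 further: lentivirally expressed fusions sorted by FACS into six bins by GFP to DsRed ratio, PSI derived from sequencing read proportions per bin multiplied by bin number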
Details: c terminus: a fixed tail appended
Kindly supply the reported protein stability index values for the records listed here.
Simply state the number, no unit and no words.

Record request: protein stability index value, item R5F
2.62

Record request: protein stability index value, item C1F
2.15

Record request: protein stability index value, item S21P
1.94

Record request: protein stability index value, item L11H
1.69

Record request: protein stability index value, item R12F
1.75

Record request: protein stability index value, item P17M
1.8

Record request: protein stability index value, item G13E
1.38

Record request: protein stability index value, item R15L
1.05

Record request: protein stability index value, item I4F
2.46

Record request: protein stability index value, item P17I
1.93

Record request: protein stability index value, item I4E
4.56

Record request: protein stability index value, item P18T
1.92

Record request: protein stability index value, item H14E
2.22

Record request: protein stability index value, item F10T
2.11

Record request: protein stability index value, item P16G
1.42

Record request: protein stability index value, item R20F
2.81

Record request: protein stability index value, item L11V
2.83

Record request: protein stability index value, item P18Q
1.78

Record request: protein stability index value, item P16E
1.92

Record request: protein stability index value, item P17A
2.28

Record request: protein stability index value, item N8I
2.36

Record request: protein stability index value, item N8S
2.44

Record request: protein stability index value, item R12M
1.06

Record request: protein stability index value, item I3P
4.2

Record request: protein stability index value, item I4R
4.37

Record request: protein stability index value, item P16I
1.73

Record request: protein stability index value, item I6D
4.25

Record request: protein stability index value, item R15V
1.84

Record request: protein stability index value, item S21F
2.91

Record request: protein stability index value, item H14P
2.15
